# Measurement target: T1, GST-RAB25 (1-180) (UniProt P57735 1-180)
# T1 construct: RAB25, residues 1-180, in pET41 Ek/LIC; source: E. coli BL21, purified (glutathione sepharose, Superdex 75 gel filtration)
# T1 sequence (looked up): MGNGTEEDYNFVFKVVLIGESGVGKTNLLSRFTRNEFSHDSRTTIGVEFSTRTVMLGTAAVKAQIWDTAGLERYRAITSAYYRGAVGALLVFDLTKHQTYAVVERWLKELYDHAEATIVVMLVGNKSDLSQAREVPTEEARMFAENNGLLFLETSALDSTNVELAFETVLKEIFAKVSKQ
# Experiment: fluorescence polarisation; as for RFP1-13 but FITC-ligand 10 nM, with threefold dilutions of GST-RAB protein; 20 mM Tris pH 8.0, 150 mM NaCl, 5 mM MgCl2, 2 mM DTT, 10 µM GTP, 2% glycerol; room temperature, 30 min; apparent Kd from a sigmoidal (4-parameter) fit, 95% confidence interval
# Particulars: both partners purified
pKd: −log10 of the molar value. Bridge positions count the residues as written; N and C are the ends. Square brackets hold non-standard residues; d marks the D form. Ends that are not written are not given here. * marks the point of attachment. FITC = O=C1OC2(c3ccc(O)cc3Oc3cc(O)ccc32)c2ccc(NC(=S)*)cc21; S5 = C=CCCC[C@](C)(N)C(=O)O; Nle = CCCC[C@H](N)C(=O)O; PEG = not defined here; βAla = NCCC(=O)O
Assay readout: pKd

[P] {FITC-PEG-βAla}-RINFRLQN[S5]IDR[S5]IVRIFETNPSILRVK (staple 9-13; reading uncertain) [FITC-RFP24 (optimized stapled peptide, 'IDR' staple)]
[Q] {FITC-PEG-βAla}-RINFRLQN[S5]IDR[S5]IVRI[Nle]ETNPSILRVK (staple 9-13; reading uncertain) [FITC-RFP26 (optimized stapled peptide, 'IDR' staple)]
Input pair: P , Q . Output: entry with lower pKd. Answer by stating the label of the chosen item.
P
